The reported numbers originate from PubChem BioAssay (NCI).

Measured TGI, listed per entry for reference.
System: HCC-2998 colon
run_description: NCI tumour cell line growth inhibition, 48 h

{"compound": "O=c1[nH]c(=S)[nH]c2c1sc(=S)n2-c1ccccc1", "assayed_target": "HCC-2998 colon", "TGI": "> 100 µM"}
{"compound": "COc1cc(/C=C2\\C(=O)N(c3cccc(Cl)c3)C(c3ccccc3)S2(=O)=O)cc(OC)c1OC (stereo not drawn)", "assayed_target": "HCC-2998 colon", "TGI": "> 100 µM"}

Let us move to another entry and its TGI.
input: Look up TGI with HCC-2998 colon for this compound: NS(=O)(=O)c1ccc(NNC(=O)c2cccc3c(=O)c4ccccc4[nH]c23)cc1
output: > 100 µM

====

// reported TGI per item
Tested on: DLD-1 colon
run_description: NCI tumour cell line growth inhibition, 48 h

Worked examples, 5 compounds total:
{"compound": "O=c1[nH]c(=S)[nH]c2c1sc(=S)n2-c1ccccc1", "assayed_target": "DLD-1 colon", "readout_kind": "TGI", "val": "> 100 µM"}
{"compound": "CCOC(=O)C1=C(Nc2ccccc2)OC/C1=N\\NC(=O)Cc1ccccc1", "assayed_target": "DLD-1 colon", "readout_kind": "TGI", "val": "> 50 µM"}
{"compound": "C/C(=N/O)C1CC=C(S(=O)(=O)c2ccccc2)C1 (stereo unspecified)", "assayed_target": "DLD-1 colon", "readout_kind": "TGI", "val": "> 100 µM"}
{"compound": "CC(=O)OC1C=CC2CCN3C(=O)c4cc5c(cc4[C@H]1C23)OCO5 (stereo partly specified)", "assayed_target": "DLD-1 colon", "readout_kind": "TGI", "val": "> 100 µM"}
{"compound": "CCc1cccc(C(C)CC)c1N=C(NC(=O)c1ccccc1C(=O)NC(=Nc1c(CC)cccc1C(C)CC)SC)SC (stereo unspecified)", "assayed_target": "DLD-1 colon", "readout_kind": "TGI", "val": "> 100 µM"}

Now for the compound whose TGI we want.
input: What value of TGI has been recorded for this entry: NCCCNCCSSCc1ccccc1CSSCCNCCCN
output: > 100 µM

====

Tested on: RPMI-8226 leukemia
run_description: NCI tumour cell line growth inhibition, 48 h
This listing pairs compounds with measured TGI.

Examples with their reported TGI follow.
{"compound": "CCOC(=O)C(Cc1ccc2c(c1)CCC2)(Cc1ccc2c(c1)CCC2)C(=O)OCC", "TGI": "> 100 µM"}
{"compound": "CC(=O)Nc1ccc2nncnc2c1", "TGI": "> 100 µM"}
{"compound": "OC(c1ccccc1)(c1ccccc1)c1ccccn1", "TGI": "> 100 µM"}
{"compound": "CCCOc1ccc(/C(Cl)=C(\\C=O)c2ccc(OC)c(OC)c2)cc1OCCC", "TGI": "> 100 µM"}
{"compound": "O=C(CC(=O)N1N=C(n2ccc3ccccc32)CC1c1ccccc1)Nc1cccc(Cl)c1 (stereo unspecified)", "TGI": "> 100 µM"}

Please look at the following compound next.
input: Please report the recorded TGI for Clc1cc2nc(C3CCCO3)[nH]c2cc1Cl (stereo unspecified) .
output: > 100 µM

====

Tested on: NCI/ADR-RES ovarian
run_description: NCI tumour cell line growth inhibition, 48 h
Listing of recorded TGI by entry.

Below, each entry is followed by its recorded TGI result.
{"molecule": "COC1/C=C\\C=C(/C)C(=O)NC2=CC(=O)C=C(C2=O)C(OC)C(C)CC(OC)C(OC)C(C)/C=C(/C)C1OC(N)=O (configuration not stated)", "TGI": "21.8 µM"}
{"molecule": "N#Cc1ccc(Oc2nccc(-c3c(-c4ccc(F)cc4)ncn3C3CCNCC3)n2)cc1", "TGI": "> 25 µM"}
{"molecule": "COc1cc(Cn2c3c(c4c(CN(C)C)c(O)ccc42)C(=O)c2ccccc2C3=O)cc(OC)c1", "TGI": "34.8 µM"}
{"molecule": "NC(CCCCCP(=O)(O)O)C(=O)O (configuration not stated)", "TGI": "> 100 µM"}
{"molecule": "CSC1=Nc2c(c(C)c(-c3ccccc3)n2COC(CO)CO)C2=NC(=O)C(C)N12 (configuration not stated)", "TGI": "> 100 µM"}

input: Which TGI value is on record for CC1=CC(c2ccccc2)OP1(=O)c1ccccc1 (configuration not stated) ?
output: > 100 µM

input: What do we get for COc1ccc2nc(-c3ccc(OC(=O)N(C)C)cc3)cn2c1 ?
output: > 100 µM

input: Next up: CC1C2Cc3ccc(O)cc3C1(C)CCN2C (configuration not stated)
output: > 100 µM

input: What about CC1=NN(c2nc(N)nc(CS(C)(=O)=O)n2)C(C)(C)C1 ?
output: > 100 µM

input: And CN1CN(c2ccccc2)C2(CCNCC2)C1=O ?
output: > 100 µM

input: // same read-out, input: Nc1ccc2c(c1)C(=O)c1ccc(F)cc1-2
output: > 100 µM

input: Another molecule: CCN1CCN(CCOc2ccc(CNc3ccc4nc(CCC5CCCCC5)[nH]c4c3)cc2)CC1
output: 11.2 µM

input: Consider next the molecule CC/C(=N\Nc1nc2ccccc2n1C)c1ccccn1 in the same way.
output: 4.9 µM
